MEASURED ON: Insulin-like growth factor 1 receptor (IGF1R) (UniProt P08069 31-1367, limits assumed)
Sequence (P08069 31-1367 limits assumed): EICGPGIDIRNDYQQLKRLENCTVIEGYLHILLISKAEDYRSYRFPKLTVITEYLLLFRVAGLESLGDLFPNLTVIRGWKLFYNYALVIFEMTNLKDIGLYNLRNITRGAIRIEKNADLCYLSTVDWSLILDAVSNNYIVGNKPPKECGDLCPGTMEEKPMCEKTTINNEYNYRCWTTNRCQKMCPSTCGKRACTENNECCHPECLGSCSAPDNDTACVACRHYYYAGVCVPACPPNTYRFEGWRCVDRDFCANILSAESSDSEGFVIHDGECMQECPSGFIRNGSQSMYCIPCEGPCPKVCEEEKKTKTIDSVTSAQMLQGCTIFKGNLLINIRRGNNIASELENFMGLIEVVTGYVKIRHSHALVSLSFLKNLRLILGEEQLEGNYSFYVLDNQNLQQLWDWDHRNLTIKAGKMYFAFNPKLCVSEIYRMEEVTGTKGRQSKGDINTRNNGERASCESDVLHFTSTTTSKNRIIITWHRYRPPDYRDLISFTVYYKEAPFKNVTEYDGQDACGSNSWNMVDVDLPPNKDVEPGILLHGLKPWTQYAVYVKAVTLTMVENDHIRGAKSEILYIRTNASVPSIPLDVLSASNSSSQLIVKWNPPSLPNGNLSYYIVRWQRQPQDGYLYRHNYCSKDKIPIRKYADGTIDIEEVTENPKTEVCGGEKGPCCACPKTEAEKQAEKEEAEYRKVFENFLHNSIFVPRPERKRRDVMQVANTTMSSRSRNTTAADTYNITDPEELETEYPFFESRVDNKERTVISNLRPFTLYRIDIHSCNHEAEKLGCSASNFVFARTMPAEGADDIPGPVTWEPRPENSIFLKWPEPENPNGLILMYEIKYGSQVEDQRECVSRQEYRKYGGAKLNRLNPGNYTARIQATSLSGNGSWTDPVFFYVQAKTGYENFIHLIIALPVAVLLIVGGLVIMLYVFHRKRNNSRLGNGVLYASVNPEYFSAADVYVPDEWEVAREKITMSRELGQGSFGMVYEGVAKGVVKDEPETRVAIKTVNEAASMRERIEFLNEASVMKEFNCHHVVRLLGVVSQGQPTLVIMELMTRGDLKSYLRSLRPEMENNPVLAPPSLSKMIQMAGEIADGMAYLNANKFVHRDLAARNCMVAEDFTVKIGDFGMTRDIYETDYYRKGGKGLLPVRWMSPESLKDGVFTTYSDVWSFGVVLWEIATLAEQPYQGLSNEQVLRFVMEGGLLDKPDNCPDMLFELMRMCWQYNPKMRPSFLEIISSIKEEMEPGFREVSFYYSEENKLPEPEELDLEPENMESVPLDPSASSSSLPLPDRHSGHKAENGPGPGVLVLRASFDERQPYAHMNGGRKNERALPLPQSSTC
ASSAY PROTOCOL: cell-based or functional assay
The star is where a group is joined. Palmitoyl = CCCCCCCCCCCCCCCC(=O)*
OBSERVATION TYPE: GI50 (µM), MTT assay, MCF-7 cells
Write the value in µM as a bare number.

Record request: GI50 (µM), MTT assay, MCF-7 cells value, item Palmitoyl-HRKRNNSRLGNG-NH2 (SMILES CCCCCCCCCCCCCCCC(=O)N[C@@H](Cc1c[nH]cn1)C(=O)N[C@@H](CCCNC(=N)N)C(=O)N[C@@H](CCCCN)C(=O)N[C@@H](CCCNC(=N)N)C(=O)N[C@@H](CC(N)=O)C(=O)N[C@@H](CC(N)=O)C(=O)N[C@@H](CO)C(=O)N[C@@H](CCCNC(=N)N)C(=O)N[C@@H](CC(C)C)C(=O)NCC(=O)N[C@@H](CC(N)=O)C(=O)NCC(N)=O) [peptide 1 (Pal-HRKRNNSRLGNG-NH2)]
1.8
